Heads up, these molecules all have Kd values measured for JAK3 (Homo sapiens, UniProt P52333).

State, in one line, measured Kd of COc1ccc(Nc2n[nH]c(NCc3cc(C)c(O)c(C)c3)c2C(N)=O)cc1 [drawing 180, reference compound]
< 50 nM

Specify measured Kd for CC1CCN(c2ccc(Nc3n[nH]c(NCc4ccc(O)cc4)c3C(N)=O)cc2)CC1 [reference compound] .
50 to 100 nM

* * *

kinase domain protein of RC kinase (RCK) (Homo sapiens, UniProt Q56UN5): recorded Kd for assorted compounds
Sequence (Q56UN5 1061-1324 limits assumed): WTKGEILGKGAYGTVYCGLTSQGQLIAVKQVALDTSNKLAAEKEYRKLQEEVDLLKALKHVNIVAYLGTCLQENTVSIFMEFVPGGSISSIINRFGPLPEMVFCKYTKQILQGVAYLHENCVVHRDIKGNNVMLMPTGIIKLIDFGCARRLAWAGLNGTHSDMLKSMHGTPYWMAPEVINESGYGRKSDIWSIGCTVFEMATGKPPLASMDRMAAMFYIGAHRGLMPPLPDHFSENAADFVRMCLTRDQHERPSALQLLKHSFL

COc1ccc(Nc2n[nH]c(NCc3cc(C)c(O)c(C)c3)c2C(N)=O)cc1 [Compound 20]: 100 to 1000 nM

For kinase domain protein of RC kinase (RCK) (Homo sapiens, UniProt Q56UN5), give the measured Kd of the entry N#Cc1cccc(Nc2n[nH]c(NCc3ccc(O)cc3)c2C(N)=O)c1 [reference compound]
50 to 100 nM

Give the observed Kd of CC(C)(C)c1ccc(Nc2n[nH]c(NCc3ccc(O)cc3)c2C(N)=O)cc1 [reference compound] for kinase domain protein of RC kinase (RCK) (Homo sapiens, UniProt Q56UN5).
< 50 nM

Using kinase domain protein of RC kinase (RCK) (Homo sapiens, UniProt Q56UN5) as the test system, report measured Kd of Cc1cc(Nc2n[nH]c(NCc3ccc(O)cc3)c2C(N)=O)cnc1N1CCOCC1 [reference compound] .
< 50 nM

Fill in Kd for CC(C)N1CCN(c2ccc(Nc3n[nH]c(NCc4ccc(O)cc4)c3C(N)=O)cc2)CC1 [reference compound] tested with kinase domain protein of RC kinase (RCK) (Homo sapiens, UniProt Q56UN5).
< 50 nM

Check kinase domain protein of RC kinase (RCK) (Homo sapiens, UniProt Q56UN5) data and give Kd for CC1CCN(C2CCN(c3ccc(Nc4n[nH]c(NCc5ccc(O)cc5)c4C(N)=O)cc3)CC2)CC1 [reference compound] .
< 50 nM

Quote Kd with test system kinase domain protein of RC kinase (RCK) (Homo sapiens, UniProt Q56UN5) for Cc1cc(CNc2[nH]nc(Nc3ccc4[nH]ncc4c3)c2C(N)=O)cc(C)c1O [Compound 22]
100 to 1000 nM

// output Kd; input Cc1cc(CNc2[nH]nc(Nc3ccc(N4CCOCC4)c(Cl)c3)c2C(N)=O)cc(C)c1O [Compound 2] ; system kinase domain protein of RC kinase (RCK) (Homo sapiens, UniProt Q56UN5)
< 50 nM
